- tested target: T1, human CD24 on cells (human, UniProt P25063 27-59)
- T1 construct: whole, on cells; One molecule for all cell lines; the cell line is named under assay or readout; also called cell surface CD24; cell-based CD24
- T1 chain (looked up): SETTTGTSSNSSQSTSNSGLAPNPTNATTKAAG
- run description: flow cytometry (GMFI), SKOV3 cells; EC50 table under the graphs [Cont'd) B]
measure name: EC50 (µg/mL)
Write the answer as a number in µg/mL, unit excluded.

Use these answered entries as a reference point.
1) VH1 + VL1 (humanized 4451) (antibody, V domains shown, IgG expressed in HEK293) VH: QVQLVQSGAEVKKPGASVKVSCKASGYDFTGYHMNWVRQAPGQGLEWMGEINPITSDKTFNQKFKSRVTMTRDTSISTAYMELSRLRSDDTAVYYCARRDYGTSLDYWGQGTTVTVSS VL: DIQLTQSPSFLSASVGDRVTITCRASKSISKYLAWYQQKPGKAPKLLIYAGSTLHSGVPSRFSGSGSGTEFTLTISSLQPEDFATYYCQQHNEYPITFGQGTKLEIK	0.45
2) VH3 + VL2 (humanized 4451) (antibody, V domains shown, IgG expressed in HEK293) VH: QVQLVQSGAEVKKPGASVKVSCKASGYDFTGYHMNWVRQAPGQGLEWIGEINPITSDKTFNQKFKSRATMTVDTSISTAYMELSRLRSDDTAVYYCARRDYGTSLDYWGQGTTVTVSS VL: DIQLTQSPSFLSASVGDRVTITCRASKSISKYLAWYQQKPGKAPRLLIYAGSTLHSGVPSRFRGSGSGTEFTLTISSLQPEDFATYYCQQHNEYPITFGQGTKLEIK	0.52

Turning now to a further binder:
Ask | Given the binder VH1 + VL3 (4451H) (antibody, V domains shown, also called Antibody No 0; Parental) VH: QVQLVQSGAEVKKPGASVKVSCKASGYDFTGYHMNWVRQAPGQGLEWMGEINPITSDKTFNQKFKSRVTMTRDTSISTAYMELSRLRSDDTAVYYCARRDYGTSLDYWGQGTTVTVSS VL: DIQLTQSPSFLSASVGDRVTITCRASKSISKYLAWYQQKPGKAPKLLIYAGSTLHSGIPSRFRGSGSGTEFTLTISSLQPEDFATYYCQQHNEYPITFGQGTKLEIK , what is its reported EC50?
Reply | 0.44
